- TEST TARGET: chimeric CaR/mGluR5d receptor (Homo sapiens)
- Sequence (P41594 580-876, change not shown): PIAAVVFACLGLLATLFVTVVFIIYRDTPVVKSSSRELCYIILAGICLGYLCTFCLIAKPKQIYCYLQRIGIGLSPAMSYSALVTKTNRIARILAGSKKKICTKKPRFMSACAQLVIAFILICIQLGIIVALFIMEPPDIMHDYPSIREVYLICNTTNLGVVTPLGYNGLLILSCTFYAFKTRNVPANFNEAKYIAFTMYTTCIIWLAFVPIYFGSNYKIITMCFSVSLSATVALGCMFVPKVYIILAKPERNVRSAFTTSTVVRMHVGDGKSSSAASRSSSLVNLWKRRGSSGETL
- Sequence (P41180 20-610 partner): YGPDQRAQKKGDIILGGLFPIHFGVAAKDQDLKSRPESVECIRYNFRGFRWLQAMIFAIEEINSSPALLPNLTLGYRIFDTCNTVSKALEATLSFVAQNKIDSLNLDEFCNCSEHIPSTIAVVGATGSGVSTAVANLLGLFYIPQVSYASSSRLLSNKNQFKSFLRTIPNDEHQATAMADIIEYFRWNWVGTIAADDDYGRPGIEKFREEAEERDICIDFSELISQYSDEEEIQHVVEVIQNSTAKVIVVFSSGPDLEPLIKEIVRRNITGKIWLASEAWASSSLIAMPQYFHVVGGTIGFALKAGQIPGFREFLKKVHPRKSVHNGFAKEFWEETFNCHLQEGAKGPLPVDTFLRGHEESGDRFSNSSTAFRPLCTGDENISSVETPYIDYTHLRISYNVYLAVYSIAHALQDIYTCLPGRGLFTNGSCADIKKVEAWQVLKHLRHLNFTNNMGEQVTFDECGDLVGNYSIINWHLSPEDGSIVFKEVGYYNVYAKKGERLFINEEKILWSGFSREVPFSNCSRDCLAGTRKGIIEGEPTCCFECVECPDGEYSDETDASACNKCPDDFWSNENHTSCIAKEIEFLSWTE
- TEST METHOD NOTES: CaR/mGluR5d Screening Assay (FLIPR, intracellular calcium)
- MEASUREMENT PARAMETERS: HEK 293 cells expressing the chimeric CaR/mGluR5d receptor, Fluo-3 fluorescence; read-out: IC50 value in relation to CaR/mGluR5d
TEST READOUT: pIC50
As a rule, pIC50 stands for the negative log10 of the concentration, concentration in M.

Q: Using the record for N#Cc1cccc(-c2nc(-c3ccccn3)co2)c1 , report its pIC50.
A: 7.35
